# Tested on: promyelocyte leukemia cell strain HL-60
# ASSAY: Test for induction of cell differentiation in HL-60 cells (NBT reduction ability)
# Type: cell-based
# MEASUREMENT SETUP: compound alone, concentration -7 (1×10^−7 M); calculated from NBT reduction ability
MEASURED METRIC: Ratio of cells for which differentiation was induced by each compound alone (%)
A number alone suffices; assume %.

Sample answers from the record:
# INPUT SMILES, QUANTITATIVE READOUT
rows = [
    ("CC(C)(C)c1cc(C(=O)Nc2ccc(O)c(=O)cc2)cc(C(C)(C)C)c1", 2.8),
    ("CC1(C)CCC(C)(C)c2cc(-c3ccc(-c4ccc(O)c(=O)cc4)o3)ccc21", 14),
    ("CC1(C)CCC(C)(C)c2cc(-c3ccc(-c4ccc(O)c(=O)cc4)s3)ccc21", 6),
    ("CC1(C)CCC(C)(C)c2cc(C#Cc3cccc(=O)cc3)ccc21", 4),
    ("CC1(C)CCC(C)(C)c2cc(C#Cc3ccc(NN)c(=O)cc3)ccc21", 2.2),
    ("CN(C(=O)c1ccc2c(c1)C(C)(C)CCC2(C)C)c1ccc(O)c(=O)cc1", 1.2),
]

Q. Provide value of Ratio of cells for which differentiation was induced by each compound alone (%) for this record tested with promyelocyte leukemia cell strain HL-60: COc1ccc(C(=O)Nc2ccc(O)c(=O)cc2)cc1C12CC3CC(CC(C3)C1)C2
A. 1.2

Q. Provide value of Ratio of cells for which differentiation was induced by each compound alone (%) for this record tested with promyelocyte leukemia cell strain HL-60: CC1(C)CCC(C)(C)c2cc(-c3cccc(-c4ccc(O)c(=O)cc4)c3)ccc21
A. 32

Q. Provide value of Ratio of cells for which differentiation was induced by each compound alone (%) for this record tested with promyelocyte leukemia cell strain HL-60: CC1(C)CCC(C)(C)c2cc(S(=O)(=O)Nc3ccc(O)c(=O)cc3)ccc21
A. 0.9

Q. Provide value of Ratio of cells for which differentiation was induced by each compound alone (%) for this record tested with promyelocyte leukemia cell strain HL-60: CC1(C)CCC(C)(C)c2cc(NC(=O)Nc3ccc(O)c(=O)cc3)ccc21
A. 1.5

Q. Provide value of Ratio of cells for which differentiation was induced by each compound alone (%) for this record tested with promyelocyte leukemia cell strain HL-60: CC(C)(C)c1cc(N=Nc2ccc(O)c(=O)cc2)cc(C(C)(C)C)c1
A. 0.8

Q. Provide value of Ratio of cells for which differentiation was induced by each compound alone (%) for this record tested with promyelocyte leukemia cell strain HL-60: CC1(C)CCC(C)(C)c2cc3cc(-c4ccc(O)c(=O)cc4)ccc3cc21
A. 66

Q. Provide value of Ratio of cells for which differentiation was induced by each compound alone (%) for this record tested with promyelocyte leukemia cell strain HL-60: O=C(Nc1ccc(O)c(=O)cc1)c1cc(C(F)(F)F)cc(C(F)(F)F)c1
A. 1.3

Q. Provide value of Ratio of cells for which differentiation was induced by each compound alone (%) for this record tested with promyelocyte leukemia cell strain HL-60: CC(C)(C)c1cc(C#Cc2ccc(O)c(=O)cc2)cc(C(C)(C)C)c1
A. 24

Q. Provide value of Ratio of cells for which differentiation was induced by each compound alone (%) for this record tested with promyelocyte leukemia cell strain HL-60: CC1(C)CCC(C)(C)c2cc(CCc3ccc(O)c(=O)cc3)ccc21
A. 5.4

Q. Provide value of Ratio of cells for which differentiation was induced by each compound alone (%) for this record tested with promyelocyte leukemia cell strain HL-60: Cc1cc2c(cc1N(C)c1ccc(O)c(=O)cc1)C(C)(C)CCC2(C)C
A. 2.4

Q. Provide value of Ratio of cells for which differentiation was induced by each compound alone (%) for this record tested with promyelocyte leukemia cell strain HL-60: CC1(C)CCC(C)(C)c2cc(Nc3ccc(O)c(=O)cc3)ccc21
A. 2.9

Q. Provide value of Ratio of cells for which differentiation was induced by each compound alone (%) for this record tested with promyelocyte leukemia cell strain HL-60: CC1(C)CCC(C)(C)c2cc(-c3ccc(O)c(=O)cc3)ccc21
A. 0.5

Q. Provide value of Ratio of cells for which differentiation was induced by each compound alone (%) for this record tested with promyelocyte leukemia cell strain HL-60: CC1(C)CCC(C)(C)c2cc(C(=O)Nc3ccc(O)c(=O)cc3)ccc21
A. 26

Source listed as patent US20040082550A1.
